molecular target: Glutamate NMDA receptor; Grin1/Grin2b (Rattus norvegicus) (UniProt P35439+Q00960); assay: Positive allosteric modulation of recombinant rat GluN1/GluN2B receptor expressed in xenopus laevis oocyte assessed as potentiation of glutamate and glycine-induced current response at 30 uM at holding potential -40mV by two electrode voltage clamp method relative to control
Measured Endpoint: Activity
Number first, unit second: that is the form wanted.

Worked set:
{"Molecule": "COc1ccc(OCC2c3ccc(N(C)C)cc3CCN2C(=O)c2cccc(Cl)c2)cc1 (configuration not stated)", "Activity": "127%"}
{"Molecule": "CCOc1ccc(OCC2c3ccc(OC(C)C)cc3CCN2C(=O)c2ccccc2Cl)cc1 (configuration not stated)", "Activity": "67%"}
{"Molecule": "CCOc1ccc(OCC2c3ccc(OCC)cc3CCN2C(=O)c2cccc(Cl)c2)cc1 (configuration not stated)", "Activity": "104%"}
{"Molecule": "CCOc1ccc(OCC2c3ccc(OC(C)C)cc3CCN2C(=O)c2cccc(OC)c2)cc1 (configuration not stated)", "Activity": "89%"}
{"Molecule": "COc1ccc(OCC2c3ccc(N4CCOCC4)cc3CCN2C(=O)c2cccc(Cl)c2)cc1 (configuration not stated)", "Activity": "146%"}
{"Molecule": "CC(C)Oc1ccc2c(c1)CCN(C(=O)c1cccc(F)c1)C2COc1ccc(OC(F)(F)F)cc1 (configuration not stated)", "Activity": "124%"}

Now consider a different molecule.
Look up and state reported Activity for CCOc1ccc(OCC2c3ccc(OCC(C)C)cc3CCN2C(=O)c2cccc(F)c2)cc1 (configuration not stated)
332%

----------
molecular target: Ionotropic glutamate receptor NMDA 1/2D (Rattus norvegicus, UniProt P35439+Q62645); assay: Positive allosteric modulation of recombinant rat GluN1/GluN2D receptor expressed in xenopus laevis oocyte assessed as potentiation of glutamate and glycine-induced current response at holding potential -40mV by two electrode voltage clamp method
Sequence (Q62645 whole entry, other chains not shown): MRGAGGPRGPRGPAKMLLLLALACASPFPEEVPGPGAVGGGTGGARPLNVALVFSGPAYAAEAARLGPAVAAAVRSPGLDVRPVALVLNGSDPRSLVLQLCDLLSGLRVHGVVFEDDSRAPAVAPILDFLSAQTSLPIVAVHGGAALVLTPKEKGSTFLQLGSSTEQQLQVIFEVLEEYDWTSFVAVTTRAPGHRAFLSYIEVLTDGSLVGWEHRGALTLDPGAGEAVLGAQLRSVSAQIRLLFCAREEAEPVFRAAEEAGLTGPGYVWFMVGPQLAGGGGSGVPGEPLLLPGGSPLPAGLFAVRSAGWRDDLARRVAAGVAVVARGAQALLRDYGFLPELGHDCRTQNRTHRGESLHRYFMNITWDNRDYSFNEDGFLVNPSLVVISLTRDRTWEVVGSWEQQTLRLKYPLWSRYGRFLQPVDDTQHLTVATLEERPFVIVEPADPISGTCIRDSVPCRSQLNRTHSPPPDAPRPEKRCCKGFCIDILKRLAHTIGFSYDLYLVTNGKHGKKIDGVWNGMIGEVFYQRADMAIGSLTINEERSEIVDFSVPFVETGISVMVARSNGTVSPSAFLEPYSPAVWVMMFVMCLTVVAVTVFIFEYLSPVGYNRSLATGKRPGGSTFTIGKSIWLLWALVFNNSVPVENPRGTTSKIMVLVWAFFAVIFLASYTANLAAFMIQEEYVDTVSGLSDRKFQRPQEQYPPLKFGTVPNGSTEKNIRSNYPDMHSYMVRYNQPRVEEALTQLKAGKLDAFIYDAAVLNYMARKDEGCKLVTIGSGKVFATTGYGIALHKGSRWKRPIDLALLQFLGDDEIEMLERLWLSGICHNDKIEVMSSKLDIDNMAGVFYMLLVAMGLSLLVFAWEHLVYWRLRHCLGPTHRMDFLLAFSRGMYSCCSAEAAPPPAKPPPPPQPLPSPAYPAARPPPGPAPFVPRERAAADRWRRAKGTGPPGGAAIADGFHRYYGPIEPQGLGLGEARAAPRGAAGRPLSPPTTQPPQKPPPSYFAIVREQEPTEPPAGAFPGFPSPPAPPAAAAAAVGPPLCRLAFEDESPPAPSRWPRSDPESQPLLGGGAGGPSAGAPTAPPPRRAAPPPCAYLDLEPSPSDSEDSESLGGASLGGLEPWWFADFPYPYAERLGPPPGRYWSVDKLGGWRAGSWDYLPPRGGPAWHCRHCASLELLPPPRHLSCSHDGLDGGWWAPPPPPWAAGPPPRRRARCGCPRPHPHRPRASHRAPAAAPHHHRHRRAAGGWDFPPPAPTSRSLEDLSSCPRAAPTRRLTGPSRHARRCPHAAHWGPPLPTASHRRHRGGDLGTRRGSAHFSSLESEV
Measured Endpoint: pEC50
Notebook: values listed as pEC50 are -log10 of the concentration (mol/L).

{"Molecule": "CCOc1ccc(OC[C@@H]2c3ccc(OC(C)C)cc3CCN2C(=S)c2cccc(F)c2)cc1", "Measured Endpoint": "pEC50", "Value": 6.24}
{"Molecule": "CCOc1ccc(OCC2c3ccc(OC(C)C)cc3CCN2C(=S)c2cccc(F)c2)cc1 (centres undefined)", "Measured Endpoint": "pEC50", "Value": 5.92}
{"Molecule": "CCOc1ccc2c(c1)CCN(C(=O)c1cccc(Cl)c1)C2COc1ccc(OC)cc1 (centres undefined)", "Measured Endpoint": "pEC50", "Value": 5.52}
{"Molecule": "COc1ccc(OCC2c3ccc(OC(C)C)cc3CCN2C(=O)c2cccc(I)c2)cc1 (centres undefined)", "Measured Endpoint": "pEC50", "Value": 5.80}
{"Molecule": "CCOc1ccc(OCC2c3ccc(OC(C)C)cc3CCN2C(=S)c2cccc(C(F)(F)F)c2)cc1 (centres undefined)", "Measured Endpoint": "pEC50", "Value": 6.35}
{"Molecule": "COc1ccc(OCC2c3ccc(NC(C)C)cc3CCN2C(=O)c2cccc(Cl)c2)cc1 (centres undefined)", "Measured Endpoint": "pEC50", "Value": 5.29}
{"Molecule": "CCOc1ccc(OCC2c3ccc(OC(C)C)cc3CCN2C(=O)c2ccc(F)c(F)c2)cc1 (centres undefined)", "Measured Endpoint": "pEC50", "Value": 5.54}
{"Molecule": "CC(C)Oc1ccc2c(c1)CCN(C(=O)c1cccc(F)c1)C2COc1ccc(OC(F)(F)F)cc1 (centres undefined)", "Measured Endpoint": "pEC50", "Value": 5.39}

Tell me its pEC50 on Ionotropic glutamate receptor NMDA 1/2D (Rattus norvegicus, UniProt P35439+Q62645): COc1ccc(OCC2c3ccc(OC(C)C)cc3CCN2C(=O)c2ccc(Cl)cc2)cc1 (centres undefined)
4.96

Tell me its pEC50 on Ionotropic glutamate receptor NMDA 1/2D (Rattus norvegicus, UniProt P35439+Q62645): CCOc1ccc(OCC2c3ccc(OCC(C)C)cc3CCN2C(=O)c2cccc(F)c2)cc1 (centres undefined)
5.47

Tell me its pEC50 on Ionotropic glutamate receptor NMDA 1/2D (Rattus norvegicus, UniProt P35439+Q62645): COc1ccc(OCC2c3ccc(OC(C)C)cc3CCN2C(=O)c2cccc([N+](=O)[O-])c2)cc1 (centres undefined)
5.47

Tell me its pEC50 on Ionotropic glutamate receptor NMDA 1/2D (Rattus norvegicus, UniProt P35439+Q62645): COc1ccc(OC[C@@H]2c3ccc(OC(C)C)cc3CCN2C(=O)c2cccc(Cl)c2)cc1
5.42

Tell me its pEC50 on Ionotropic glutamate receptor NMDA 1/2D (Rattus norvegicus, UniProt P35439+Q62645): CC(C)Oc1ccc(OCC2c3ccc(OC(C)C)cc3CCN2C(=S)c2cccc(Cl)c2)cc1 (centres undefined)
6.39

Tell me its pEC50 on Ionotropic glutamate receptor NMDA 1/2D (Rattus norvegicus, UniProt P35439+Q62645): COc1ccc(OCC2c3ccc(OC4CCCCC4)cc3CCN2C(=O)c2cccc(Cl)c2)cc1 (centres undefined)
5.72

Tell me its pEC50 on Ionotropic glutamate receptor NMDA 1/2D (Rattus norvegicus, UniProt P35439+Q62645): CCOc1ccc(OCC2c3ccc(OC4CCCC4)cc3CCN2C(=O)c2cccc(Cl)c2)cc1 (centres undefined)
5.37
